The following binders are listed with their measured pKd values.
Target: T1, TFAM (UniProt Q00059 43-246)
T1 sequence: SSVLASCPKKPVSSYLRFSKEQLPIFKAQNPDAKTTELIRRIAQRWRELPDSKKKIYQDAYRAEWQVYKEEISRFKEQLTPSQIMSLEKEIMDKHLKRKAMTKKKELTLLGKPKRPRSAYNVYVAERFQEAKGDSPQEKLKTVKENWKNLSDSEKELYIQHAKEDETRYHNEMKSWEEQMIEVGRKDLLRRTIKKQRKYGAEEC
Experiment: fluorescence polarization; 350 mM NaCl; EMSA: 10 mM HEPES pH 8.0, 500 mM NaCl, 2 mM DTT, 130 ug/ml BSA, 5% glycerol, 100 nM DNA, 30 min on ice then 10 min RT; FP: 10 mM HEPES pH 8.0, 150-400 mM NaCl
Settings: protein: recombinant; tags: His-MBP N-terminal, removed by TEV; label: 5'-Cy3 on strand 1 (EMSA); 6-FAM (FP); blunt
By convention, pKd is the negative base-10 log of a molar concentration.

{"Binder": "DNAAA (dsDNA) DNA 1: AAAAAGAATCATTTGGATATATAGGTAT DNA 2: ATACCTATATATCCAAATGATTCTTTTT", "pKd": 5.41}

Attention now turns to another entry.
q: What value of pKd has been recorded for this entry: DNAGG (dsDNA) DNA 1: AAAAAGAACCATTTGGATACATAGGTAT DNA 2: ATACCTATGTATCCAAATGGTTCTTTTT
a: 5.29
